- testDescription: Solubility of pesticide powders in solvents, 2% stepwise increments
- conditionNotes: solvent DMPA (N,N-dimethyl propanamide); last concentration before powder not dissolved, 2% steps; no more than 2% lower than actual solubility
Kindly supply the reported Solubility in DMPA values for the records listed here.
Give the value in weight % but do not write weight % after it.

Using the record for Cc1c(COC(=O)[C@@H]2[C@H](/C=C(\Cl)C(F)(F)F)C2(C)C)cccc1-c1ccccc1 (racemic) [Bifenthrin] , report its Solubility in DMPA.
47

Which Solubility in DMPA is reported for this compound? CC(C)(C)C(=O)C(Oc1ccc(Cl)cc1)n1cncn1 (stereo not shown) [Triazolone]
58

Requested read-out: Solubility in DMPA. Entry: CCCCC(C#N)(Cn1cncn1)c1ccc(Cl)cc1 (stereo not shown) [Myclobutanil]
58

Sample COC(=O)N(OC)c1ccccc1COc1ccn(-c2ccc(Cl)cc2)n1 [Pyraclostrobin] — what was its Solubility in DMPA?
63

----------
Could you please report measured Solubility in DEAC for the items listed next?
- testDescription: Solubility of pesticide powders in solvents, 2% stepwise increments
- conditionNotes: solvent DEAC (N,N-diethyl acetamide); last concentration before powder not dissolved, 2% steps; no more than 2% lower than actual solubility
// note: answer is a bare numeric in weight %

Given the entry CCCCC(C#N)(Cn1cncn1)c1ccc(Cl)cc1 (stereo not shown) [Myclobutanil] , report its measured Solubility in DEAC.
57

Dear colleague, I am looking for the recorded Solubility in DEAC of the following compound: Cc1c(COC(=O)[C@@H]2[C@H](/C=C(\Cl)C(F)(F)F)C2(C)C)cccc1-c1ccccc1 (racemic) [Bifenthrin]
50

Which measured Solubility in DEAC value corresponds to CC(C)(C)C(=O)C(Oc1ccc(Cl)cc1)n1cncn1 (stereo not shown) [Triazolone] ?
54

Fill in: Solubility in DEAC of COC(=O)N(OC)c1ccccc1COc1ccn(-c2ccc(Cl)cc2)n1 [Pyraclostrobin] is ___
54

----------
Give Solubility in DMAA810 for every item shown.
- testDescription: Solubility of pesticide powders in solvents, 2% stepwise increments
- conditionNotes: solvent DMAA810; last concentration before powder not dissolved, 2% steps; no more than 2% lower than actual solubility
Numeric answer only, unit weight % assumed.

Requested field: Solubility in DMAA810. Item: COC(=O)N(OC)c1ccccc1COc1ccn(-c2ccc(Cl)cc2)n1 [Pyraclostrobin]
42

What value of Solubility in DMAA810 has been reported for the following compound? Cc1c(COC(=O)[C@@H]2[C@H](/C=C(\Cl)C(F)(F)F)C2(C)C)cccc1-c1ccccc1 (racemic) [Bifenthrin]
33

Recorded Solubility in DMAA810 of CC(C)(C)C(=O)C(Oc1ccc(Cl)cc1)n1cncn1 (centres unmarked) [Triazolone] , please.
39

Look at this compound and give its reported Solubility in DMAA810. CCCCC(C#N)(Cn1cncn1)c1ccc(Cl)cc1 (centres unmarked) [Myclobutanil]
42

Which value of Solubility in DMAA810 has been reported for CC(C)(C)C(O)(CCc1ccc(Cl)cc1)Cn1cncn1 (centres unmarked) [Tebuconazole] in the records?
37

----------
I'd be grateful if you could share measured Solubility in DMSO for these entries.
- testDescription: Solubility of pesticide powders in solvents, 2% stepwise increments
- conditionNotes: solvent DMSO; last concentration before powder not dissolved, 2% steps; no more than 2% lower than actual solubility
Write the value in weight % as a bare number.

Item under review: CCCCC(C#N)(Cn1cncn1)c1ccc(Cl)cc1 (centres unmarked) [Myclobutanil] . Reported Solubility in DMSO?
57

Please look up its Solubility in DMSO: CC(C)(C)C(=O)C(Oc1ccc(Cl)cc1)n1cncn1 (centres unmarked) [Triazolone]
43

Can you share its Solubility in DMSO? I mean this compound: CC(C)(C)C(O)(CCc1ccc(Cl)cc1)Cn1cncn1 (centres unmarked) [Tebuconazole]
32

Which Solubility in DMSO value is on record for COC(=O)N(OC)c1ccccc1COc1ccn(-c2ccc(Cl)cc2)n1 [Pyraclostrobin] ?
40

// lookup Solubility in DMSO for Cc1c(COC(=O)[C@@H]2[C@H](/C=C(\Cl)C(F)(F)F)C2(C)C)cccc1-c1ccccc1 (racemic) [Bifenthrin]
7
